target: HLA DRB1 *1101 (Homo sapiens, UniProt P01903+P01911, A100R/A169T/A87E/I96F/K41T/L162R/M171V/P40S/Q125H/Q178H/Q39Y/Q99D/R42S/S66Y/T262R/V115G/W38E); test: IC50nM to purified HLA | DRB1 *1101
Sequence (P01903 26-254 limits assumed, other chains not shown): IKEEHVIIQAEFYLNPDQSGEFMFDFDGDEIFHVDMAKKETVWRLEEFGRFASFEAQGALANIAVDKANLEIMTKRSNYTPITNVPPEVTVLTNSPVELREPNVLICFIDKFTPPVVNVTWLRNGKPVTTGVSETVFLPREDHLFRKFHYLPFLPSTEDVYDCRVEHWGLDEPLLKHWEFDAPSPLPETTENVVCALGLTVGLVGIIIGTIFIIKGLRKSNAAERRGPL
Where no end group is shown, it is not given here.
Kindly note that classification relies on IC50 with these boundaries: bottom bin = under 20 nM, middle bin = from 20 nM up to 40 nM, top bin = 40 nM and over

CHAIN: AAAEFVAAWTLHAAA [SEQ ID NO: 46]
CLASS NAME: middle bin
--
CHAIN: AAAHFVAAYTLKAEA [SEQ ID NO: 37]
CLASS NAME: top bin
--
CHAIN: AAAHFVAAFTLHAAA [SEQ ID NO: 28]
CLASS NAME: bottom bin
--
CHAIN: AAANFVAAWTLHAAA [SEQ ID NO: 51]
CLASS NAME: bottom bin
--
CHAIN: AAAHFVAAFTLKADA [SEQ ID NO: 33]
CLASS NAME: top bin
--
CHAIN: AAADFVAAFTLHAAA [SEQ ID NO: 43]
CLASS NAME: top bin
--
CHAIN: AAAEFVAAWTLKAAA [SEQ ID NO: 45]
CLASS NAME: top bin
--
CHAIN: AAANFVAAYTLHAAA [SEQ ID NO: 52]
CLASS NAME: bottom bin
--
CHAIN: AAAHFVAANTLHAAA [SEQ ID NO: 29]
CLASS NAME: middle bin
--
CHAIN: AAAHFVAANTLKADA [SEQ ID NO: 34]
CLASS NAME: top bin
